Tested on: MDA-MB-435 melanoma
Procedure Details: NCI-60 one-dose screen, 48 h
Cond: 10 µM unless noted
The panel holds about 83,000 compounds, 20% with a hit somewhere; the sample as a whole holds those more often. Activity calls are given as the source filed them. Rule for the calls: active = growth percent below 10; inactive = the rest.
Write down one outcome, taken from yes (1) (active), no (0) (inactive)

Example entries begin here.
- Molecule: "Cc1ccc2c(c1)C(=O)/C(=C\\Nc1ccc(C(N)=O)cc1)C(O)O2 (centres undefined)"
  Label Value: "no (0)"
- Molecule: "O=[N+]([O-])c1ccc(N=Nc2c(Cl)cc(O)cc2Cl)cc1"
  Label Value: "yes (1)"
- Molecule: "CCN(CC)c1ccc(C(=C2C=CC(=[N+](CC)Cc3cccc(S(=O)(=O)O)c3)C=C2)c2ccc(N(CC)Cc3cccc(S(=O)(=O)O)c3)cc2)cc1"
  Label Value: "no (0)"

Enquiry: What did this assay record as the result for O=C1/C=C/[C@@H](O)[C@@H]2C[C@@H](O)C[C@H]2/C=C/CCC[C@H](CO)O1 ?
Return: no (0)

Enquiry: // outcome(item) with item = Cc1ccc2nc3c(n2c1)C(=O)C(=O)c1ccccc1-3
Return: yes (1)

Enquiry: What outcome does the record of this test show for Cc1cc2c(cc1C)[n+](Cc1ccc3ccccc3c1)cn2Cc1ccc2ccccc2c1 ?
Return: yes (1)

Enquiry: Each molecule tested received a call. Report the one for COc1cc(-c2nc3nc4sc(C)c(C)c4c(=O)n3[nH]2)cc(OC)c1OC .
Return: yes (1)

Enquiry: Answer briefly: the call reported for NC(=O)c1cc(Br)cc(Br)c1NS(=O)(=O)c1ccccc1 in this assay.
Return: no (0)

Enquiry: # fetch the recorded call for CC1(C)CC2(C)CC(=O)C1C(C(=O)O)C2C(=O)O (centres undefined) here
Return: no (0)

Enquiry: Which outcome did this test record for the molecule Nc1ccc(Oc2c(F)c(F)c(Oc3ccc(N)cc3)c(F)c2F)cc1 ?
Return: no (0)
